Just for reference, PubChem BioAssay (NCI) is where these values come from.

- System: TK-10 renal
- methodDescription: NCI tumour cell line growth inhibition, 48 h
Where a SMILES comes first, the peptide text is derived from it. [ ]: non-standard residue; d: D form. The star is where a group is joined. NMeF = CN[CH](Cc1ccccc1)C(=O)O; NMeV = CN[CH](C(=O)O)C(C)C; ΔPro = O=C(O)[CH]1C=CCN1; Boc = CC(C)(C)OC(=O)*; OBn = c1ccc(CO*)cc1
Catalogue of molecules with associated TGI
measurementName: TGI

* Cn1c(=O)c2ccccc2[n+]2c(-c3cccc([N+](=O)[O-])c3)csc12 | > 100 µM
* C=C1N(S(=O)(=O)c2ccc(C)cc2)C(=O)OCC12CCCC2 | > 100 µM
* CCc1n[nH]c(=O)n1CC | > 100 µM
* Cc1ccc(Nc2cccc3c2C(=O)c2cccc(Nc4ccc(C)cc4S(=O)(=O)O)c2C3=O)c(S(=O)(=O)O)c1 | > 100 µM
* Nc1cccc2c1-c1c(cccc1[N+](=O)[O-])C2=O | > 100 µM
* COc1ccccc1-n1nnc2c(N)nc(N)nc21 | > 100 µM
* O=c1[nH]c(=O)c2c([nH]1)[nH]c1ccc(Br)cc12 | > 100 µM
* C/C(O)=C(\C=N\C(=S)N=Nc1c(O)[nH]c2ccccc12)C(=O)Nc1ccccc1C | > 100 µM
* O=Cc1cn(CCCCCCCCn2cc(C=O)c3ccccc32)c2ccccc12 | > 10 µM
* O=C1C=C(NCCO)c2nccc3c2c1nc1ccccc13 | 60.8 µM
* COCn1cc(C2=C(C)C(=O)C(C)=C(C)C2=O)cn1 | > 100 µM
* CCN(CC)CCNc1ccc2ncn3c4ccc(OC)cc4c(=O)c1c23 | 29.2 µM
* COc1cc(-c2nn(-c3ccc(NC(=O)Nc4cc(C(F)(F)F)cc(C(F)(F)F)c4)cc3)cc2-c2ccncc2)ccc1Cl | 9.3 µM
* N#C/C(=C\c1c(O)cc(O)cc1O)C(N)=O | > 100 µM
* CN1CCN(CCCNC(=O)c2c3c(n4ccccc24)C(=O)c2ncccc2C3=O)CC1 | 40.9 µM
* COc1cccc(NC(=O)CSc2nnc(Cc3ccccc3)o2)c1 | > 100 µM
* CC(=O)[O-].CC(=O)[O-].O=C(N/N=C/c1cc(Cl)cc(Cl)c1[OH2+])c1ccncc1.[Mn+2] | 27.3 µM
* COc1ccc2c(c1)C(=Nc1ccc(F)c(Cl)c1)c1c-2c(Nc2ccc(F)c(Cl)c2)nc2ccccc12 | > 80 µM
* COC(=O)C1=CC2C(=O)OC1C1C(=O)NC(=O)C21 (stereo unspecified) | > 100 µM
* COc1ccc(N2C(=O)C(Cl)C2c2cc3cc(Br)ccc3nc2Cl)cc1 (stereo unspecified) | 15.5 µM
* O=C(O)C1C=CCN1C(=O)C1C=CCN1C(=O)C1C=CCN1 (stereo unspecified) (H-[ΔPro]-[ΔPro]-[ΔPro]-OH; configuration not given here) | > 100 µM
* O=C(Sc1c(-c2ccccc2)c(=O)n(-c2ccccc2)c(=S)n1-c1ccccc1)c1ccccc1 | > 100 µM
* CC(=Nc1ccc(N(C)C)cc1)c1ccccc1 | 40.1 µM
* O=C1CSC(c2ccccc2O)N1c1ccc2c(c1)Oc1c(Cl)c3c(c(Cl)c1=N2)Oc1cc(N2C(=O)CSC2c2ccccc2O)ccc1N=3 (stereo unspecified) | > 100 µM
* CC(=O)OC1CCC2OOC1O2 (stereo unspecified) | > 100 µM
* CC1(C)C(=O)OC(n2cc(F)c(=O)[nH]c2=O)C1=O (stereo unspecified) | > 100 µM
* c1ccc2sc(SSSc3nc4ccccc4s3)nc2c1 | > 100 µM
* CC(=O)NS(=O)(=O)c1ccc(NCc2cccc3c(=O)c4ccc(Cl)cc4oc23)cc1 | > 100 µM
* CCCCC(=O)N(c1ccc(Nc2c3ccccc3nc3cc([N+](=O)[O-])ccc23)cc1)S(C)(=O)=O | > 84 µM
* Cn1c(CCCC(=O)O)nc2cc(N(CCCl)CCCl)ccc21 | > 100 µM
* CC1(C)c2ccccc2N2C(c3ccccc3)=NOC21C (stereo unspecified) | > 100 µM
* Oc1ccc2c(=S)cc(-c3ccc(Br)cc3)oc2c1O | 14.7 µM
* Nc1[nH]nc2nc(-c3cc(Cl)ccc3Cl)cc(-c3ccc(F)cc3)c12 | > 100 µM
* CC(C)C(NC(=O)OC(C)(C)C)C(=O)N(C)C(Cc1ccccc1)C(=O)N(C)C(C(=O)OCc1ccccc1)C(C)C (stereo not drawn) (Boc-Val-[NMeF]-[NMeV]-OBn; configuration not given here) | > 100 µM
* Cc1cccc(C)c1NC(=O)CCC(=O)NC(N)=NC#N | > 100 µM
* O=C(/C=C/c1ccc(Cl)c(Cl)c1)c1ccccc1Cl | 47.9 µM
* Cn1[nH]cc2ccc3nc4ccccc4c(=O)c3c21 | 72.2 µM
* COc1ccc(Oc2nc3cc(N)cc(N)c3nc2-c2ccccc2)cc1 | > 100 µM
* CC1(C)CC[C@]2(C(=O)O)CC[C@]3(C)C(=CCC4=C5C[C@H](O)[C@H](O)[C@@](C)(CO)[C@@]5(C)CC[C@]43C)[C@@H]2C1 | > 100 µM
* CCCCN=NNc1cn(C2OC(CO)C(O)C2O)c(=O)[nH]c1=O (stereo unspecified) | > 100 µM
* O/N=C(\CC(O)(C(F)(F)F)C(F)(F)F)c1cccs1 | > 10 µM
